# System: HeLa Kyoto;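 also: synchronized HeLa Kyoto cells, proteins quantified by TMT10plex mass spectrometry, three biological replicates, mitosis taken 0.5 h after nocodazole release, G1/S directly after double thymidine block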
# assay protocol: thermal stability score vs G1/S (z-score of summed log2 fold changes over temperatures); higher = more thermally stable than in G1/S
# experimental parameters: cell cycle stage: early G1 (4.5 h after nocodazole release)
observation type: thermal stability score
Could you respond with only the numeric value?

[
  {
    "record sequence": "MRKPDSKIVLLGDMNVGKTSLLQRYMERRFPDTVSTVGGAFYLKQWRSYNISIWDTAGREQFHGLGSMYCRGAAAIILTYDVNHRQSLVELEDRFLGLTDTASKDCLFAIVGNKVDLTEEGALAGQEKEECSPNMDAGDRVSPRAPKQVQLEDAVALYKKILKYKMLDEQDVPAAEQMCFETSAKTGYNVDLLFETLFDLVVPMILQQRAERPSHTVDISSHKPPKRTRSGCCA [RAB20]",
    "thermal stability score": 3.91
  }
]

Let us move to another entry and its thermal stability score.
Entry MDQEPVGGVERGEAVAASGAAAAAAFGESAGQMSNERGFENVELGVIGKKKKVPRRVIHFVSGETMEEYSTDEDEVDGLEKKDVLPTVDPTKLTWGPYLWFYMLRAATSTLSVCDFLGEKIASVLGISTPKYQYAIDEYYRMKKEEEEEEEENRMSEEAEKQYQQNKLQTDSIVQTDQPETVISSSFVNVNFEMEGDSEVIMESKQNPVSVPP [FAM177A1] ; assay system HeLa Kyoto; thermal stability score recorded at 0.512
